target.desc: PIP4K 2A (Homo sapiens)
Sequence (P48426 whole entry, species assumed): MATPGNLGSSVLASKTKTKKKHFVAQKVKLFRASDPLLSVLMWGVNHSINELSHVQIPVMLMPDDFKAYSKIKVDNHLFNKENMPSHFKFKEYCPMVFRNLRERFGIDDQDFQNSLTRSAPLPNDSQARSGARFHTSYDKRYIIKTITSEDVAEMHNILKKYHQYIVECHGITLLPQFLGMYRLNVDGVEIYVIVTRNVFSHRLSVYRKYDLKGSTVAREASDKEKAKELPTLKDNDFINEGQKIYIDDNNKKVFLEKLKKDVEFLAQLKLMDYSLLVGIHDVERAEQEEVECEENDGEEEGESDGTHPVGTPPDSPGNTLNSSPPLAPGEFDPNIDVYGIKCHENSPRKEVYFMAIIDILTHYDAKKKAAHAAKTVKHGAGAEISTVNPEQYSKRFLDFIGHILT
experiment.notes: Kinase Assay PIP4K2 A (PIP4KtypeIIA inhibition assay)
Assay type: biochemical
Parameters: made in house; host or cells: E. coli
condition.set: compounds listed under IC50 bin headings
pIC50: −log10 of the molar value.
Here, each record is paired with measured pIC50 data.

Known results for compounds:
# compound, pIC50
rows = [
    ("CC1Oc2cc(C(=O)N(C)C)ccc2-c2cnc(Nc3cccnc3)cc21 (stereo not drawn) [Example 31]", "8.00 to 9.00"),
    ("CC1Oc2cc(C(=O)N(C)C)ccc2-c2cnc(Nc3cnc4c(c3)N(S(C)(=O)=O)CCO4)cc21 (stereo not drawn) [Example 71]", "≥ 9.00"),
    ("CC1Oc2cc(N3CCCC3=O)ccc2-c2cnc(Nc3cncc(F)c3)cc21 (stereo not drawn) [Example 50]", "8.00 to 9.00"),
    ("COC(=O)N1CCOc2ncc(Nc3cc4c(cn3)-c3ccc(N5CCCC5=O)cc3OC4C)cc21 (stereo not drawn) [Example 83]", "≥ 9.00"),
    ("CC(C)S(=O)(=O)N1CCOc2ncc(Nc3cc4c(cn3)-c3ccc(N5CCCC5=O)cc3OC4)cc21 [Example 79]", "≥ 9.00"),
]

[in] Name the recorded pIC50 for O=C1CCCN1c1ccc2c(c1)OCc1cc(Nc3cnc4c(c3)N3C(=O)CC[C@H]3CO4)ncc1-2 [Example 75] .
[out] ≥ 9.00

[in] Name the recorded pIC50 for Cn1cnnc1-c1ccc2c(c1)OC(C)(C)c1cc(Nc3cnc4c(c3)N3C(=O)CC[C@H]3CO4)ncc1-2 [Example 211] .
[out] ≥ 9.00

[in] Name the recorded pIC50 for O=C1CCCN1c1ccc2c(c1)OCc1cc(Nc3cnc4c(c3)N(S(=O)(=O)C3CC3)CCO4)ncc1-2 [Example 74] .
[out] ≥ 9.00

[in] Name the recorded pIC50 for CC1Oc2cc(N3CCCC3=O)ccc2-c2cnc(Nc3cncnc3)cc21 (stereo not drawn) [Example 80] .
[out] 7.00 to 8.00

[in] Name the recorded pIC50 for CC(=O)N1CCOc2ncc(Nc3cc4c(cn3)-c3ccc(C(=O)N(C)C)cc3OC4C)cc21 (stereo not drawn) [Example 70] .
[out] ≥ 9.00

[in] Name the recorded pIC50 for CC(=O)Nc1cncc(Nc2cc3c(cn2)-c2ccc(N4CCCC4=O)cc2OC3C)c1 (stereo not drawn) [Example 100] .
[out] ≥ 9.00

[in] Name the recorded pIC50 for CC1Oc2cc(N3CCCC3=O)ccc2-c2cnc(Nc3ccnnc3)cc21 (stereo not drawn) [Example 127] .
[out] 7.00 to 8.00
